Reported CC50 at 24 h by item:
Procedure Text: in vitro
Recorded Conditions: human
Protocol: Cytotoxicity of the synthesised peptides was evaluated by comparison with commercially available colistin (polymyxin E), polymyxin B (Sigma chemical Co., St. Louis, Mo., U.S.A.) and synthetic octapeptin C4 by conducting lactate dehydrogenase (LDH) assay. CC50 values calculated based on curve fitting of dose dependent inhibition of cell growth represented the cytotoxicity of the peptide. […]
Positions of bridges follow the written chain, without caps; N, C: chain ends. Non-standard residues stand in square brackets, D forms with d. Residues, ends and D or L forms follow the SMILES beside them. *: point of attachment. Ala(benzothiazol-2-yl) = N[C@@H](Cc1nc2ccccc2s1)C(=O)O; Benzoyl(4-OPh) = O=C(c1ccc(Oc2ccccc2)cc1)*; Decanoyl(3R-OH) = CCCCCCC[C@@H](O)CC(=O)*; Butanoyl(4-OPh) = O=C(CCCOc1ccccc1)*; dIgl = N[C@@H](C(=O)O)C1Cc2ccccc2C1; Ala(cPr) = N[C@@H](CC1CC1)C(=O)O; X4 = CCCCCOc1ccc(C(=O)*)cc1; dDab = NCC[C@@H](N)C(=O)O; Octanoyl = CCCCCCCC(=O)*; dDap = NC[C@@H](N)C(=O)O; Dab = NCC[C@H](N)C(=O)O; Dap = NC[C@H](N)C(=O)O
Measured Parameter: CC50 at 24 h

# Molecule, Measured Parameter, Result
records = [
    ("CCCCCCC[C@@H](O)CC(=O)N[C@@H](CN)C(=O)N[C@H]1CCNC(=O)[C@H](CC(C)C)NC(=O)[C@H](CCN)NC(=O)[C@H](CCN)NC(=O)[C@H](CC(C)C)NC(=O)[C@@H](Cc2ccccc2)NC(=O)[C@H](CCN)NC1=O [compound 5561] ({Decanoyl(3R-OH)}-[Dap][Dab][Dab][dF]L[Dab][Dab]L; lactam 2-C)", "CC50 at 24 h", "> 300 µM"),
    ("CCCCCCC[C@@H](O)CC(=O)N[C@H](CN)C(=O)N[C@H]1CCNC(=O)[C@H](Cc2c[nH]c3ccccc23)NC(=O)[C@H](CCCNC(=N)N)NC(=O)[C@H](CCCCN)NC(=O)[C@H](CC(C)C)NC(=O)[C@@H](C2Cc3ccccc3C2)NC(=O)[C@H](CCN)NC1=O [compound 8896] ({Decanoyl(3R-OH)}-[dDap][Dab][Dab][dIgl]LKRW; lactam 2-C)", "CC50 at 24 h", "102 µM"),
    ("CCCCCCC[C@@H](O)CC(=O)N[C@H](CCN)C(=O)N[C@H]1CCNC(=O)[C@H](CC(C)C)NC(=O)[C@H](CCN)NC(=O)[C@H](CCN)NC(=O)[C@@H](Cc2ccccc2)NC(=O)[C@H](CC(C)C)NC(=O)[C@H](CCN)NC1=O [compound 9194] ({Decanoyl(3R-OH)}-[dDab][Dab][Dab]L[dF][Dab][Dab]L; lactam 2-C)", "CC50 at 24 h", "> 300 µM"),
    ("CCCCCCC[C@@H](O)CC(=O)N[C@H](CCN)C(=O)N[C@H]1CCNC(=O)[C@H](CC(C)C)NC(=O)[C@H](CCN)NC(=O)[C@H](CCN)NC(=O)[C@H](CC(C)C)NC(=O)[C@@H](Cc2ccccc2)NC(=O)[C@H](CCNC(=O)[C@@H](N)CCCNC(=N)N)NC1=O [compound 6655] ({Decanoyl(3R-OH)}-[dDab][Dab][Dab](Arg)[dF]L[Dab][Dab]L; lactam 2-C)", "CC50 at 24 h", "> 300 µM"),
    ("CCCCCCC[C@@H](O)CC(=O)N[C@H](CCN)C(=O)N[C@H]1CCNC(=O)[C@H](Cc2c[nH]c3ccccc23)NC(=O)[C@H](CCN)NC(=O)[C@H](CCN)NC(=O)[C@H](CC2CC2)NC(=O)[C@@H](Cc2ccccc2)NC(=O)[C@H](CCN)NC1=O [compound 8099] ({Decanoyl(3R-OH)}-[dDab][Dab][Dab][dF][Ala(cPr)][Dab][Dab]W; lactam 2-C)", "CC50 at 24 h", "73 µM"),
    ("CCCCCCC[C@@H](O)CC(=O)N[C@H](CCN)C(=O)N[C@H]1CCNC(=O)[C@H](Cc2nc3ccccc3s2)NC(=O)[C@H](CCN)NC(=O)[C@H](CCN)NC(=O)[C@H](CC(C)C)NC(=O)[C@@H](Cc2ccccc2)NC(=O)[C@H](CCN)NC1=O [compound 8910] ({Decanoyl(3R-OH)}-[dDab][Dab][Dab][dF]L[Dab][Dab][Ala(benzothiazol-2-yl)]; lactam 2-C)", "CC50 at 24 h", "47 µM"),
    ("CCCCCCCC(=O)N[C@H](CN)C(=O)N[C@H]1CCNC(=O)[C@H](CC(C)C)NC(=O)[C@H](CCN)NC(=O)[C@H](CCN)NC(=O)[C@H](CC(C)C)NC(=O)[C@@H](Cc2ccccc2)NC(=O)[C@H](CCN)NC1=O [compound 8976] (Octanoyl-[dDap][Dab][Dab][dF]L[Dab][Dab]L; lactam 2-C)", "CC50 at 24 h", "> 300 µM"),
    ("CCCCCCC[C@@H](O)CC(=O)N[C@H](CCN)C(=O)N[C@H]1CCNC(=O)[C@H](CC(C)C)NC(=O)[C@H](CCN)NC(=O)[C@H](CCN)NC(=O)[C@H](CC(C)C)NC(=O)[C@@H](Cc2ccccc2)NC(=O)[C@H](CCCCN)NC1=O [compound 995] ({Decanoyl(3R-OH)}-[dDab][Dab]K[dF]L[Dab][Dab]L; lactam 2-C)", "CC50 at 24 h", "> 300 µM"),
    ("CC(C)C[C@@H]1NC(=O)[C@H](CCN)NC(=O)[C@H](CCN)NC(=O)[C@H](Cc2ccccc2)NC(=O)[C@@H](CC(C)C)NC(=O)[C@H](CCN)NC(=O)[C@@H](NC(=O)[C@@H](CCN)NC(=O)c2ccc(Oc3ccccc3)cc2)CCNC1=O [compound 6519] ({Benzoyl(4-OPh)}-[dDab][Dab][Dab][dL]F[Dab][Dab]L; lactam 2-C)", "CC50 at 24 h", "> 300 µM"),
    ("CC(C)C[C@@H]1NC(=O)[C@H](CCN)NC(=O)[C@H](CCN)NC(=O)[C@H](CC(C)C)NC(=O)[C@@H](Cc2ccccc2)NC(=O)[C@H](CCN)NC(=O)[C@@H](NC(=O)[C@@H](CCN)NC(=O)CCCOc2ccccc2)CCNC1=O [compound 6529] ({Butanoyl(4-OPh)}-[dDab][Dab][Dab][dF]L[Dab][Dab]L; lactam 2-C)", "CC50 at 24 h", "> 300 µM"),
    ("CCCCCOc1ccc(C(=O)N[C@H](CCN)C(=O)N[C@H]2CCNC(=O)[C@H](CC(C)C)NC(=O)[C@H](CCN)NC(=O)[C@H](CCN)NC(=O)[C@H](Cc3ccccc3)NC(=O)[C@@H](CC(C)C)NC(=O)[C@H](CCN)NC2=O)cc1 [compound 6520] (X4-[dDab][Dab][Dab][dL]F[Dab][Dab]L; lactam 2-C)", "CC50 at 24 h", "> 300 µM"),
    ("CCCCCCC[C@@H](O)CC(=O)N[C@H](CN)C(=O)N[C@H]1CCNC(=O)[C@H](CC(C)C)NC(=O)[C@H](CCN)NC(=O)[C@H](CCN)NC(=O)[C@H](C(C)C)NC(=O)[C@@H](Cc2ccccc2)NC(=O)[C@H](CCN)NC1=O [compound 9291] ({Decanoyl(3R-OH)}-[dDap][Dab][Dab][dF]V[Dab][Dab]L; lactam 2-C)", "CC50 at 24 h", "> 300 µM"),
]
